Source of measurements: paper PMC11969024

Record form. Attribute: enrichment. Fill in for each entry.
B1: peptide HD2 (from tick evasin EVA4) / CCL19 (biotinylated, synthetic) (parent)
chain 1: EEDDYTAYAPLTCYFT
chain 2: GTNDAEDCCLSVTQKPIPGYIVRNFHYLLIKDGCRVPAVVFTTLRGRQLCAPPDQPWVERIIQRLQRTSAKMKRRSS

- Variants of: B1
- test_settings: with CCL19 (biotinylated, synthetic); scale: log2

Request: Which enrichment value is on record for chain 1 EEDDVTAYAPLTCYFT ?
Response: -8.24

Request: Value lookup for enrichment; key = chain 1 EEDDYTAYAPNTCYFT
Response: -7.42

Request: Look at this variant and give its reported enrichment. chain 1 EEDDGTAYAPLTCYFT
Response: -6.08

Request: Given the entry chain 1 EEDDYTAEAPLTCYFT , report its measured enrichment.
Response: -5.16

Request: Name the recorded enrichment for chain 1 CEDDYTAYAPLTCYFT .
Response: -8.72

Request: Reported enrichment, variant chain 1 EEDDYTAPAPLTCYFT : ____
Response: -6.84

Request: Request the reported enrichment associated with chain 1 EEDDYTAAAPLTCYFT
Response: -7.75

Request: Which measured enrichment value corresponds to chain 1 EEDDYTAYAPLTKYFT ?
Response: -8.09

Request: What measured enrichment goes with chain 1 EEDDYTAYAPGTCYFT ?
Response: -9.22

Request: Can you share its enrichment? I mean this variant: chain 1 EEDDPTAYAPLTCYFT
Response: -5.7

Request: Data request, read-out enrichment, for chain 1 EEDDYTAYAPDTCYFT
Response: -8.06

Request: # query: enrichment of entry chain 1 EEDDYTAYADLTCYFT
Response: -7.38

Request: What value of measured enrichment is listed for chain 1 EEDDYTARAPLTCYFT ?
Response: -7.16

Request: Can you share its enrichment? I mean this variant: chain 1 EKDDYTAYAPLTCYFT
Response: -4.12

Request: Suppose we examine the variant chain 1 EEDDYTAYAPLTCTFT ; what enrichment value has been reported?
Response: -7.91

Request: Looking for the measured enrichment of chain 1 EEDDYTAYKPLTCYFT , can you help?
Response: -5.6

Request: What enrichment value was documented for this variant, chain 1 EEDDYTAKAPLTCYFT ?
Response: -5.04

Request: Recorded enrichment for chain 1 EEDDYTAYAPETCYFT , please?
Response: -7.14

Request: If you can, please state the reported enrichment value of chain 1 EEDDYTAYAPLTEYFT .
Response: -8.9

Request: Could you share which enrichment value was measured for chain 1 EEDDYTAYAPLTHYFT ?
Response: -7.62

Request: Entry chain 1 EEDDYTAYHPLTCYFT : reported enrichment = ?
Response: -7.18

Request: Any idea what its enrichment is? The variant is chain 1 EEDRYTAYAPLTCYFT
Response: -6.06

Request: Look at this variant and give its reported enrichment. chain 1 EEDDYTAYAPLTIYFT
Response: -7.15

Request: Dear colleague, I am looking for the recorded enrichment of the following variant: chain 1 EEDDYTAYAPLTWYFT
Response: -8.62

Request: Endpoint output: enrichment of chain 1 EPDDYTAYAPLTCYFT . Value?
Response: -6.02

Request: Return reported enrichment; argument: chain 1 QEDDYTAYAPLTCYFT
Response: -3.57

Request: Which enrichment is listed for chain 1 EEDGYTAYAPLTCYFT ?
Response: -5.19

Request: Data request, read-out enrichment, for chain 1 EEDDYTAYAPLTCSFT
Response: -8.64

Request: I would be grateful if you could share the reported enrichment for chain 1 EEDDYTAYAPLGCYFT .
Response: -9.27

Request: Could you tell me which enrichment is on file for chain 1 EEDKYTAYAPLTCYFT ?
Response: -5.85

Request: Could you share which enrichment value was measured for chain 1 EQDDYTAYAPLTCYFT ?
Response: -3.87

Request: Can you look up the measured enrichment of chain 1 EEDDYTAYAPLTQYFT for me?
Response: -8.35

Request: Which enrichment value is on record for chain 1 EEDDYTAYAPLTAYFT ?
Response: -9.6

Request: State the recorded enrichment for this entry: chain 1 EEDDYTAYAKLTCYFT
Response: -5.94

Request: Requested field: enrichment. Item: chain 1 EEDDQTAYAPLTCYFT
Response: -4.33

Request: Please give the measured enrichment for this variant: chain 1 EEDDATAYAPLTCYFT
Response: -6.04

Request: Quick one: enrichment of chain 1 EEDDYTAYAALTCYFT ?
Response: -7.68

Request: Using the record for chain 1 EEDDYTAYAPLTMYFT , report its enrichment.
Response: -8.49

Request: What value of measured enrichment is listed for chain 1 EEHDYTAYAPLTCYFT ?
Response: -5.94

Request: Dear colleague, I am looking for the recorded enrichment of the following variant: chain 1 EEDEYTAYAPLTCYFT
Response: -4.92

Request: Return reported enrichment; argument: chain 1 EEDDYTAYANLTCYFT
Response: -6.99

Request: enrichment for chain 1 EECDYTAYAPLTCYFT ?
Response: -8.87

Request: I have this variant here, chain 1 EEDDYTAIAPLTCYFT , and I need its recorded enrichment.
Response: -8.35

Request: Tell me the measured enrichment of chain 1 EEDDYTAYGPLTCYFT , please.
Response: -7.67

Request: Report enrichment for chain 1 EEDDYTAGAPLTCYFT please.
Response: -7.68

Request: Reported enrichment, variant chain 1 EEDDYTAYASLTCYFT : ____
Response: -8.17

Request: Recorded enrichment of chain 1 EEADYTAYAPLTCYFT , please.
Response: -6

Request: Suppose we examine the variant chain 1 EEDTYTAYAPLTCYFT ; what enrichment value has been reported?
Response: -6.85

Request: Reported enrichment, variant chain 1 EEDDYTAYQPLTCYFT : ____
Response: -6.19

Request: Query: enrichment; subject: chain 1 EEQDYTAYAPLTCYFT
Response: -3.96

Request: Would you kindly share the measured enrichment for chain 1 EEDDYTAYAPLTVYFT ?
Response: -10.3

Request: // lookup enrichment for chain 1 EEDDYTAYAPLQCYFT
Response: -6.6

Request: Would you mind telling me what enrichment value was observed for chain 1 EEDDYTAYAILTCYFT ?
Response: -7.41

Request: Query (variant): chain 1 EEDDYTAYAPLTCNFT ; field requested: enrichment
Response: -5.87

Request: What value of enrichment has been reported for the following variant? chain 1 EEDNYTAYAPLTCYFT
Response: -6.94

Request: // query enrichment value for entry chain 1 EERDYTAYAPLTCYFT
Response: -6.43

Request: Need enrichment, item chain 1 EEDDYTAYAQLTCYFT
Response: -5.36

Request: Returns the measured enrichment for the input variant. Input: chain 1 EEDDYTATAPLTCYFT
Response: -7.46

Request: Query (variant): chain 1 EEDDYTAYAPLTCQFT ; field requested: enrichment
Response: -7.02

Request: Which enrichment value is on record for chain 1 EEDHYTAYAPLTCYFT ?
Response: -6.74

Request: Could you share which enrichment value was measured for chain 1 EHDDYTAYAPLTCYFT ?
Response: -6.61

Request: Given the entry chain 1 EEDDETAYAPLTCYFT , report its measured enrichment.
Response: -2.46

Request: GET /values?readout=enrichment&item= chain 1 EEDDYTAYAELTCYFT
Response: -6.87

Request: Bench note: what enrichment did chain 1 EEDDYTADAPLTCYFT show?
Response: -6.51

Request: What does the record list as enrichment for chain 1 EEDDYTAYARLTCYFT ?
Response: -8.05

Request: What enrichment value was documented for this variant, chain 1 EEMDYTAYAPLTCYFT ?
Response: -6.81

Request: Entry under review: chain 1 EEDDYTAYACLTCYFT . Reported enrichment?
Response: -8.69

Request: Would you kindly share the measured enrichment for chain 1 EEDDYTAYAPLTFYFT ?
Response: -7.6

Request: Endpoint output: enrichment of chain 1 EEDDYTACAPLTCYFT . Value?
Response: -8.65

Request: Could you tell me which enrichment is on file for chain 1 EEDDYTAYAHLTCYFT ?
Response: -6.93

Request: Entry chain 1 EEDDYTAYAPLDCYFT : reported enrichment = ?
Response: -7.63

Request: Which enrichment value is on record for chain 1 EEDDYTAYAPLTYYFT ?
Response: -7.72

Request: What does the record list as enrichment for chain 1 EEKDYTAYAPLTCYFT ?
Response: -4.33

Request: Dear colleague, I am looking for the recorded enrichment of the following variant: chain 1 EEDDYTANAPLTCYFT
Response: -7.1

Request: I would be grateful if you could share the reported enrichment for chain 1 EEDDKTAYAPLTCYFT .
Response: -4.57

Request: Suppose we examine the variant chain 1 EEDDYTAYAPLTRYFT ; what enrichment value has been reported?
Response: -9.52

Request: enrichment lookup needed for chain 1 EEIDYTAYAPLTCYFT , thanks.
Response: -8.83

Request: // enrichment lookup, key: chain 1 EEDDYTAYAPLTCDFT
Response: -6.5

Request: Request the reported enrichment associated with chain 1 EEDDYTAYAPLTCYNT
Response: -5.7

Request: Dear colleague, I am looking for the recorded enrichment of the following variant: chain 1 EEDDYTAYAPLTTYFT
Response: -8.2

Request: What enrichment value was documented for this variant, chain 1 EEDPYTAYAPLTCYFT ?
Response: -6.04

Request: Which enrichment value belongs to chain 1 EEDDRTAYAPLTCYFT ?
Response: -6.02

Request: Consider the variant shown here: chain 1 EEDDYTAYAPLTCCFT What is its recorded enrichment?
Response: -7.29

Request: Give its enrichment value. Item: chain 1 EEDDYTCYAPLTCYFT
Response: -8.81

Request: # query: enrichment of entry chain 1 EEDDYTAYDPLTCYFT
Response: -7.2

Request: Entry chain 1 EEDDYTAYAPLTCYIT has what enrichment?
Response: -5.23

Request: enrichment for chain 1 EEDDYTAQAPLTCYFT ?
Response: -5.33

Request: Sample chain 1 EEDDYTAYAPLTGYFT — what was its enrichment?
Response: -9.4

Request: Reported enrichment for chain 1 EEDDYTAYAPLTCYFP : what is it?
Response: -6.44

Request: Can you look up the measured enrichment of chain 1 EEDCYTAYAPLTCYFT for me?
Response: -8.21

Request: What value of enrichment has been reported for the following variant? chain 1 EETDYTAYAPLTCYFT
Response: -6.58

Request: Quick one: enrichment of chain 1 EEDAYTAYAPLTCYFT ?
Response: -7.05

Request: # input variant: chain 1 EEDDYTAYAPLTCEFT ; wanted: its enrichment
Response: -7.73
